- Assayed Target: T1, γHV68 M11 residues 1-136 (murine γHV68), P89884
- T1 chain: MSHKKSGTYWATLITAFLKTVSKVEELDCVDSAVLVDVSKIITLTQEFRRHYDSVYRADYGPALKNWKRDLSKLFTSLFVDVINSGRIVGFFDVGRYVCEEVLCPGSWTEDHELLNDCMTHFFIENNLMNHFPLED
- Method: ITC, 25 °C
Please respond with condition met when measured ΔG is strictly beneath -30 kJ/mol, and with condition not met in all other cases.

// query For this binder, is ΔG lower than -30 kJ/mol? GSGTMENLSRRLKVTEDLFDIMSGQT (modifications not checked) [Beclin 1 BH3D-derived peptide G120E]
// result condition not met

// query For this binder, is ΔG lower than -30 kJ/mol? GSGTMENLSRRLAVTGDLFDIMSGQT (modifications not checked) [Beclin 1 BH3D-derived peptide K117A]
// result condition met

// query For this binder, is ΔG lower than -30 kJ/mol? GSGTMENLSRRAKVTGDLFDIMSGQT (modifications not checked) [Beclin 1 BH3D-derived peptide L116A]
// result condition not met

// query For this binder, is ΔG lower than -30 kJ/mol? GSGTMENLSRRLKVTGDLFDIMSGQT (modifications not checked) [Beclin 1 BH3D peptide, wild type]
// result condition met
